system: NCI/ADR-RES; experiment: NCI tumour cell line growth inhibition, 48 h
Active and inactive are the calls of the source. Cut-off read from the data, not from the text of the source: active = GI50 up to about 1.1 µM and inactive = higher.
Possible outcomes: yes for active, no for inactive

compound	labelClass
COP(=O)(OC)C(O)/C=C/c1ccco1 (stereo not given)	no
O=C1Nc2ccccc2/C1=N/NC(=S)N1CCCCCC1	yes
Cc1c2c3ccccc3nc-2n(C)c2ccccc12	no
CC1(C)OCN(c2ccc(Cl)cc2)Cn2c1nc1ccccc12	no
COc1ccc(C(O)(c2ccccc2)c2nccc3ccccc23)cc1 (stereo not given)	no
Oc1cccc(-c2nc3cc(F)ccc3s2)c1	no
COC(=O)c1cc(CC2Cc3cc4c(cc3C2)CCC4)cc2c1CCC2	no
CCCc1nc(Cl)c(Cl)c(Cl)n1	no
CN1C(=O)N(C)C(O)C(Cl)(Br)C1=O (stereo not given)	no
Clc1ccc(Nc2nnc(CCCCCCCCc3nnc(Nc4ccc(Cl)cc4)o3)o2)cc1	no
Cc1nc2c(nc1C)-c1c(c3c(n1Cc1ccccc1)C(=O)CCC3)C(=O)C2=O	no
COP(=O)(OC)[C@@](O)(c1ccccc1)[C@@H](O)[C@@H](O)c1ccccc1	no
CC(Br)C(=O)c1ccc2cc(Br)c3ccccc3c2c1 (stereo not given)	no
CCOc1ccccc1Nc1ccc(N)cc1S(=O)(=O)O	no
NC(C(F)(F)F)(C(F)(F)F)P(=O)(Cc1ccccc1)Cc1ccccc1	no
O=C(NS(=O)(=O)Nc1ccc(Cl)cc1)OCc1ccc(Cl)cc1Cl	no
COc1c(C(=O)NCCN(CCNC(=O)c2cccc(-c3cccc(C(=O)N(C)C)c3OC)c2OC)CCNC(=O)c2cccc(-c3cccc(C(=O)N(C)C)c3OC)c2OC)cccc1-c1cccc(C(=O)N(C)C)c1OC	no
OCC1OC(c2scc3c(=S)[nH]cnc23)C(O)C1O (stereo not given)	no
CCOC(=O)/C=C/[C@H](O)[C@@H](O)/C=C/C(=O)OCC	no
COC(=O)NCCc1n[nH]c2c1C(=O)C=C(N1CCOCC1)C2=O	no

* * *

HCT-15 GI50 data
assayMetric: GI50

>>> print(df.to_string())
                                   compound  measured
0  CCN1/C(=C/C#C/C(C)=C\c2sc3ccc(Cl)cc3[n+]2CC)Sc2ccc(Cl)cc21   4.61 µM
1                   CC[P+]1(c2ccccc2)CCCCC1  > 100 µM
2  Cc1nc2c(nc1C)-c1c(c3c(n1Cc1ccccc1)C(=O)CCC3)C(=O)C2=O   3.15 µM
3  CCN(CC)c1ccc(/C=C2\CCc3ccc([N+](=O)[O-])cc3C2=O)cc1   0.64 µM
4  CC1(C)OC(=O)C(Cc2ccccc2)(Cc2ccccc2)C(=O)O1  > 100 µM
5  CC(=N\N)/C(C)=N/N=C(C)/C(C)=N/N=C(C)/C(C)=N/N  > 100 µM
6  O=C1c2ccccc2NC2C(O)c3ccccc3N12 (stereo not drawn)   34.6 µM
7                O=C(O)c1ccc2[nH]c(=O)oc2c1  > 100 µM

* * *

// values below are reported GI50
tested on: SF-539; experiment: NCI tumour cell line growth inhibition, 48 h
Active and inactive are the calls of the source. No stated cut-off is given here; in the data, active = GI50 up to about 1.1 µM and inactive = higher.
assayMetric: GI50

>>> print(df.to_string())
                                   molecule             measured
0  N#CC12Cc3cc4c(cc3-c3cccc(c31)CCN2C(=O)c1ccccc1)OCO4 (stereo unspecified)  > 100 µM (inactive)
1      Cc1nc(N)c(N2CCN(Cc3ccccc3)CC2)c(O)n1  > 100 µM (inactive)
2         O=C/C(=C(/Cl)c1ccc(O)cc1)c1ccccc1   28.6 µM (inactive)
3      Cc1cc(=O)oc2cc(OCc3c(F)cccc3Cl)ccc12   11.9 µM (inactive)
4              CSc1nc(=S)[nH]c2[nH]nc(C)c12  > 100 µM (inactive)
5    CC1(C)OCN(c2ccc(Cl)cc2)Cn2c1nc1ccccc12    6.5 µM (inactive)

* * *

test system: UO-31; assay: NCI tumour cell line growth inhibition, 48 h
Calls of active or inactive are those of the source. No stated cut-off is given here; in the data, active = GI50 up to about 1.1 µM and inactive = higher.
Possible outcomes: T (active), F (inactive)

compound	labelClass
c1ccc(C(C2=Nc3cccc4cccc(c34)N2)c2ccccc2)cc1	F
Cn1cnc(N2CCCC2)c(C#N)c1=O	F
Cc1nc(O)nc(N(CCO)/N=C/c2ccc(Cl)cc2)c1C(=O)Nc1ccc(Cl)cc1	F
CC(=O)NC1C(OCc2ccccc2)OC(CO)C(O)C1OC(C)C(=O)NC(C)C(=O)NC(CCC(=O)NCCCNc1c2ccccc2nc2cccc([N+](=O)[O-])c12)C(N)=O (configuration not stated)	F
COc1ccc2[nH]c3c(C)c4ccnc(NCCCN(C)CCCNc5ccc6nnn7c8ccccc8c(=O)c5c67)c4c(C)c3c2c1	T
Cc1nc2c(nc1C)-c1c(c3c(n1Cc1ccccc1)C(=O)CCC3)C(=O)C2=O	F
O=C/C(=C(/Cl)c1ccc(O)cc1)c1ccccc1	F
Oc1cc(O)c(Oc2cccc(O)c2O)c(O)c1	F
COc1cc2cnc3c4cc(O)ccc4ccc3c2cc1OC	F
CCOC(=O)C1(C(=O)OCC)CSC1	F
CNC(=S)N/N=C1\CC(c2ccccc2)Oc2ccccc21 (configuration not stated)	F
C=CCN(N=O)C(=O)ON1C(=O)CCC1=O	F

* * *

system: K562; assay: NCI tumour cell line growth inhibition, 48 h
Active and inactive are the calls of the source. No stated cut-off is given here; in the data, active = GI50 up to about 1.1 µM and inactive = higher.
// values below are reported GI50
assayMetric: GI50

>>> df
                                   compound  subjectoftest             measured
0                  Nc1ccc(/N=N/c2ccccc2)cc1           K562   35.8 µM (inactive)
1  Cc1[nH]c(=O)nc(N/N=C/c2ccc(Cl)cc2)c1C(=O)Nc1ccc(Cl)cc1           K562   22.9 µM (inactive)
2         CCCNC1=NC(C)=CSC(Nc2ccccc2)=C1C#N           K562  > 100 µM (inactive)
3  CC(=O)OC12OC(C)(C3C(=O)N(c4ccccc4)C(=O)C31)N(c1ccccc1)C2=O (stereo not given)           K562  > 100 µM (inactive)
4  CN(C)CCN(C)C(=O)C1CCCN1C(=O)OCc1ccccc1 (stereo not given)           K562   61.1 µM (inactive)

* * *

test system: UO-31; assay: NCI tumour cell line growth inhibition, 48 h
Activity calls are given as the source filed them. Cut-off read from the data, not from the text of the source: active = GI50 up to about 1.1 µM and inactive = higher.
Possible outcomes: active, inactive

In [3]: df
Out[3]:
                                   molecule  labelclass
0  CC[C@H](C)C1=C(O)[N@+]2([O-])Oc3ccc(-c4c(O)c(O)c(-c5ccc(OC(C)=O)cc5)c(OC(C)=O)c4OC(C)=O)cc3O[C@]2([C@@H](C)CC)C(=O)N1O    inactive
1  CCN(CC)CCNc1ccc([N+](=O)[O-])c2nc3ccccc3c(N)c12      active
2  COC(=O)c1ccccc1C1CN=NC12Cc1cc(C)ccc1C2=O (centres undefined)    inactive
3  CC(=O)OCC1OC(n2c3c(cc(C#N)c2=S)CCCC3)C(OC(C)=O)C(OC(C)=O)C1OC(C)=O (centres undefined)    inactive

* * *

test system: DU-145; assay: NCI tumour cell line growth inhibition, 48 h
Calls of active or inactive are those of the source. No stated cut-off is given here; in the data, active = GI50 up to about 1.1 µM and inactive = higher.
Possible outcomes: True for active, False for inactive

compound	labelClass
CC(C)=CCC12Cc3ccc(O)cc3C(C(C)CN1)C2C (stereo not drawn)	False
CC1(C)CC(O)C2=C(O1)C(=O)c1ncccc1C2=O (stereo not drawn)	False
CCCNC1=NC(C)=CSC(Nc2ccccc2)=C1C#N	False
CN1C(=O)N(C)C(O)C(Cl)(Br)C1=O (stereo not drawn)	False
O=C/C(=C(/Cl)c1ccc(O)cc1)c1ccccc1	False
O=C1c2ccccc2C(=O)c2c(NCCNC(=O)C3CCCN3)ccc(NCCNC(=O)C3CCCN3)c21 (stereo not drawn)	False
Cc1nc(C)c(Cc2ccccc2)o1	False
CCCCNC(=S)N/C=C1\C(=O)Oc2ccccc2C1=O	False
Nc1ccn(C2OC(C(OC3OC(CO)C(O)C(N)C3O)C(O)C(O)C(O)C(O)CO)C(N)C(O)C2O)c(=O)n1 (stereo not drawn)	False
Cc1ccc2nc3c(C)c(Cl)c(=O)cc-3sc2c1	False
CCCCCCCCCCC[N+]1(Cc2ccccc2)CC2CCN(Cc3ccccc3)CC2C1 (stereo not drawn)	True
O=C1C=C2CCC[C@H]3OC(=O)C[C@@]23CC1	False
Cc1c(N)nc(C(CC(N)=O)NCC(N)C(N)=O)nc1C(=O)NC(C(=O)NC(C)C(O)C(C)C(=O)NC(C(=O)NCCc1nc(-c2nc(C(=O)NCCCNC(C)c3ccccc3)cs2)cs1)C(C)O)C(OC1OC(CO)C(O)C(O)C1OC1OC(CO)C(O)C(OC(N)=O)C1O)c1c[nH]cn1 (stereo not drawn)	False
